- Measurement target: T1, Ox-LDL binding to His9-hMSR1 (Homo sapiens, UniProt P21757)
- T1 construct: human MSR1 extracellular domain expressed with a N-terminal nonahistidine tag; His9 (nonahistidine) (N); purchased R&D Systems 2708-MS
- T1 sequence (P21757 77-451 limits assumed): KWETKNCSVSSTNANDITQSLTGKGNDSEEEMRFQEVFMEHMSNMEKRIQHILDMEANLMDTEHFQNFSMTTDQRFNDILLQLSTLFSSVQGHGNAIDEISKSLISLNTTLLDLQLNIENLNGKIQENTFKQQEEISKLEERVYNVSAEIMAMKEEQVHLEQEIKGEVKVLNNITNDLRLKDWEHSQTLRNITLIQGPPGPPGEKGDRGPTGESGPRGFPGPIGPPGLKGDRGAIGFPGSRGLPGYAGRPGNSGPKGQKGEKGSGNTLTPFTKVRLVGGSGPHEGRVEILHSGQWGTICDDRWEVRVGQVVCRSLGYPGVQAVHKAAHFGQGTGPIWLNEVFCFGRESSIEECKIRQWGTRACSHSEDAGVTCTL
- Assay text: Competition sandwich ELISA, blocking of Ox-LDL binding
- Measurement context: antibody 500 nM, Ox-LDL 10 nM
Measured quantity: anti-MSR1 antibody blocking of Ox-LDL binding to His9-hMSR1 % Blocking (%)

Molecule | Observed result
H1H21231N-N297Q: modified version of "21231N (H1H21231N-N297Q) anti-MSR1 antibodies" with "a N297Q single point mutation" (antibody, V domains shown) VH: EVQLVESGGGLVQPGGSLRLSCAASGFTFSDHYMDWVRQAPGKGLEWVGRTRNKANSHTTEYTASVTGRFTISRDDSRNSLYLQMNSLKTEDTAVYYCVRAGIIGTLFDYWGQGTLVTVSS VL: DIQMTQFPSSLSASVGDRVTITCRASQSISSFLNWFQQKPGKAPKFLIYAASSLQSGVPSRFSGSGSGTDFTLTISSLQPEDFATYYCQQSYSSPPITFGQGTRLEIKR | 26
H1H21227N: "anti-MSR1 antibodies ... (21227N, 21231N, 21234N) were produced with the original human Fcγ portion"; "H1H" = human IgG1 Fc (antibody, V domains shown, human IgG1 Fc, "anti-MSR1 antibodies ; (21227N, 21231N, 21234N) were produced with the original human Fcγ portion"; "H1H" = human IgG1 Fc) VH: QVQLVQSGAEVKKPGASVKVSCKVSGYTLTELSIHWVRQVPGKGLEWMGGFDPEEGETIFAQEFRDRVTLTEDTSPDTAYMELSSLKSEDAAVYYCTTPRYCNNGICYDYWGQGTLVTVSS VL: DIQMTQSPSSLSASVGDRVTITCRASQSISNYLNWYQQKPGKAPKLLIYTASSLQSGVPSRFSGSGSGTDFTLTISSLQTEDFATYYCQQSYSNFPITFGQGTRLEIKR | 100
H1H21231N: "anti-MSR1 antibodies ... (21227N, 21231N, 21234N) were produced with the original human Fcγ portion"; "H1H" = human IgG1 Fc (antibody, V domains shown, human IgG1 Fc, "anti-MSR1 antibodies ; (21227N, 21231N, 21234N) were produced with the original human Fcγ portion"; "H1H" = human IgG1 Fc) VH: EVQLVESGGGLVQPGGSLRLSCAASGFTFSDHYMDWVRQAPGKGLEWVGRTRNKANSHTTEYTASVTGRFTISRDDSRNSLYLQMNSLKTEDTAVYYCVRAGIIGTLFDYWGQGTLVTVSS VL: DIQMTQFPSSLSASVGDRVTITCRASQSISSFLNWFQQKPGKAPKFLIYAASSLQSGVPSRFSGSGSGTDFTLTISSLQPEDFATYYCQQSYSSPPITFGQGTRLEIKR | 22
